Kindly state protein stability index for each of the entries shown.
B1: FBXO33 (parent)
chain: RLRGLLRVLRGRPGAGSRRRGRMA

- Variants of: B1
- assayComment: protein stability index of a GFP-peptide fusion (GPS, HEK-293T) (PSI 1-6); higher = more stable;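 also: lentivirally expressed fusions sorted by FACS into six bins by GFP to DsRed ratio, PSI derived from sequencing read proportions per bin multiplied by bin number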
- conditionDescription: c terminus: a fixed tail appended

>  <sequence>
RPRGLLRVLRGRPGAGSRRRGRMA [L2P]

>  <recordedEndpoint>
protein stability index

>  <reportedMeasurement>
4.19

$$$$

Quick request: protein stability index for each listed item, please.
1. RLRGLLRVNRGRPGAGSRRRGRMA [L9N]
2. RLRGLLRVLRGRPGSGSRRRGRMA [A15S]
3. RLRGGLRVLRGRPGAGSRRRGRMA [L5G]
4. NLRGLLRVLRGRPGAGSRRRGRMA [R1N]

1. 3.72
2. 1.6
3. 4.71
4. 2.01

Provide protein stability index values for the following items, in order.
1. RLRGLLRVLRGRPGAGSRRRGCMA [R22C]
2. RLRGLLRVLRNRPGAGSRRRGRMA [G11N]
3. RLQGLLRVLRGRPGAGSRRRGRMA [R3Q]

[2.09, 2.47, 2.21]

Below is a list of variants. For each, state its recorded protein stability index.
1. RLRGLLRVLRGRPGAGSRRVGRMA [R20V]
2. RLRRLLRVLRGRPGAGSRRRGRMA [G4R]
3. RLRGLLRVLRGRPGWGSRRRGRMA [A15W]
4. RLRGLLRHLRGRPGAGSRRRGRMA [V8H]
5. RLRGLLRVLRGRPGAGSRRRGRME [A24E]
6. RLRGLLRVERGRPGAGSRRRGRMA [L9E]
7. GLRGLLRVLRGRPGAGSRRRGRMA [R1G]
8. RLRGLLRVLRGRPGAGSRRRGYMA [R22Y]

1: 2.39; 2: 2.06; 3: 1.8; 4: 2.1; 5: 2.54; 6: 3.75; 7: 1.84; 8: 1.7
